# ASSAY_OVERVIEW: solvent given as SMILES
# EXPERIMENTAL_PARAMETERS: in CCO
Classification field: Satisfied = absorption maximum at or over 400 nm; Not satisfied = absorption maximum under 400 nm.

Prompt: # bool: absorption maximum of COc1cccc(-n2c(-c3ccc(O)cc3)nc(C)c2C)c1 >= 400 nm
Completion: Not satisfied

Prompt: Thanks! And CC[N+](CC)=c1ccc2c(-c3ccccc3C(=O)O)c3c(=O)oc4cc5c(cc4c3oc-2c1)CCCN5C ?
Completion: Satisfied

Prompt: Try this compound too: CC1(C)CC(=O)C2=C(C1)Oc1ccc3ccccc3c1C2c1ccccn1 (stereo not given)
Completion: Not satisfied

Prompt: Same thing, different compound: CCCCCCCCCCCCOc1cc2cc(N(C)C)ccc2cc1C#N
Completion: Not satisfied
